Assayed target: Retinoic acid receptor alpha (Homo sapiens)
Protocol description: ATG_DR5_RAR_CIS: Attagene CIS-FACTORIAL HepG2 Assay for human Retinoic Acid Receptor Alpha (RARE), DR5 submotif (AID 2282934)
Details: HepG2 Attagene cis-factorial RARE DR5 reporter, mRNA; actives raise or lower the signal
Active and inactive are the calls of the source. How the source made its calls: active means hit-call score of the fitted dose curve at least 0.9, where 1 is the maximum; inactive means score below 0.9.
API: response.call in active, inactive

Q: Recorded test call requested for C#CC(O)CCC (configuration not stated)
Result: inactive

Q: Recorded test call requested for CCc1ccc(C)nc1
Result: inactive

Q: Recorded test call requested for O=C(O)C(F)(F)C(F)(F)C(F)(F)C(=O)O
Result: inactive

Q: Recorded test call requested for C=CC(=O)OCCC(F)(F)C(F)(F)C(F)(F)C(F)(F)F
Result: inactive

Q: Recorded test call requested for NC(=O)C(F)(F)C(F)(F)C(F)(F)C(F)(F)C(F)(F)C(F)(F)C(F)(F)F
Result: inactive

Q: Recorded test call requested for CN(C)C(C)(C)CO
Result: inactive

Q: Recorded test call requested for CC(C)(C)c1cc(Cc2cc(C(C)(C)C)c(O)c(C(C)(C)C)c2)cc(C(C)(C)C)c1O
Result: inactive

Q: Recorded test call requested for CC1=CC2C3C=CC(C3)C2C1C (configuration not stated)
Result: inactive

Q: Recorded test call requested for Cc1ccc2c(c1)OCC(=O)CO2
Result: inactive

Q: Recorded test call requested for CCC(Cc1c(I)cc(I)c(N)c1I)C(=O)O (configuration not stated)
Result: inactive

Q: Recorded test call requested for COc1ccccc1C=O
Result: inactive

Q: Recorded test call requested for NC(O)(C(F)(F)F)C(F)(F)F
Result: inactive

Q: Recorded test call requested for CO[Si](C)(CCC(F)(F)C(F)(F)C(F)(F)C(F)(F)C(F)(F)C(F)(F)F)OC
Result: inactive

Q: Recorded test call requested for CC1=CCC(=O)O1
Result: inactive

Q: Recorded test call requested for CCCC(=O)OCC(COC(=O)CCC)OC(=O)CCC
Result: active

Q: Recorded test call requested for CC(C)Nc1ccc(NC(C)C)c2c1C(=O)c1ccccc1C2=O
Result: inactive

Q: Recorded test call requested for CCN(CC)c1ccc(C=O)cc1
Result: inactive

Q: Recorded test call requested for OCCCC(F)(F)C(F)(F)C(F)(F)C(F)(F)C(F)(F)C(F)(F)C(F)(F)C(F)(F)F
Result: active

Q: Recorded test call requested for COCCC(=O)OC
Result: inactive

Q: Recorded test call requested for CN(N=O)C(=O)N[C@@H]1[C@@H](O)[C@H](O)[C@@H](CO)O[C@@H]1O
Result: inactive

Q: Recorded test call requested for CCN(CC)c1ccc(C=O)c(O)c1
Result: inactive

Q: Recorded test call requested for NC(=O)C(F)(F)C(F)(F)C(F)(F)C(F)(F)C(N)=O
Result: inactive

Q: Recorded test call requested for Oc1ccc2c(c1)CCC2
Result: inactive

Q: Recorded test call requested for F[Si-2](F)(F)(F)(F)F
Result: inactive

Q: Recorded test call requested for OCCC(O)CO (configuration not stated)
Result: inactive

Q: Recorded test call requested for O=C(O)CCC(F)(F)C(F)(F)C(F)(F)F
Result: inactive

Q: Recorded test call requested for CCC(C)CO (configuration not stated)
Result: inactive

Q: Recorded test call requested for CCCCOC(=O)C(C)O (configuration not stated)
Result: inactive

Q: Recorded test call requested for Cc1cnccn1
Result: inactive

Q: Recorded test call requested for CCCCCCCC/C=C\CCCCCCCC(=O)OCC(O)CO (configuration not stated)
Result: active

Q: Recorded test call requested for O=S(=O)(Cl)C(F)(F)C(F)(F)C(F)(F)C(F)(F)C(F)(F)C(F)(F)C(F)(F)C(F)(F)F
Result: inactive

Q: Recorded test call requested for O=C(Cl)C(F)(F)C(F)(F)C(F)(F)C(F)(F)C(F)(F)C(F)(F)F
Result: inactive

Q: Recorded test call requested for FC(F)(F)C(F)(F)C(F)(F)C(F)(F)C(F)(F)C(F)(F)C(F)(F)CCI
Result: inactive

Q: Recorded test call requested for O=C1c2c(O)ccc(Nc3ccc(CCO)cc3)c2C(=O)c2c([N+](=O)[O-])ccc(O)c21
Result: inactive

Q: Recorded test call requested for CC(=O)CCC(C)C
Result: inactive

Q: Recorded test call requested for CCOC(OCC)OCC
Result: inactive

Q: Recorded test call requested for C=CC(=O)OCC(F)(F)C(F)(F)C(F)(F)COC(=O)C=C
Result: inactive

Q: Recorded test call requested for c1ccc(C[P+](c2ccccc2)(c2ccccc2)c2ccccc2)cc1
Result: inactive

Q: Recorded test call requested for CCCCCCCCn1sc(Cl)c(Cl)c1=O
Result: active

Q: Recorded test call requested for CCOC(=O)CCC(C)=O
Result: inactive

Q: Recorded test call requested for N#CCCOCCC#N
Result: inactive

Q: Recorded test call requested for OCC(O)CC(F)(F)C(F)(F)C(F)(F)C(F)(F)F (configuration not stated)
Result: inactive

Q: Recorded test call requested for C[Si](C)O[Si](C)C
Result: inactive

Q: Recorded test call requested for CSc1ccc(O)cc1C
Result: inactive

Q: Recorded test call requested for O=C(O)C(F)(F)C(F)(F)C(F)(F)OC(F)(C(F)(F)F)C(F)(F)F
Result: inactive

Q: Recorded test call requested for Nc1cccnc1N
Result: active

Q: Recorded test call requested for CC(C)OC=O
Result: inactive
